- System: ST8814
- METHOD SUMMARY: drug sensitivity score (DSS, CellTox-Green cytotoxicity, 72 h) (DSS (dimensionless)); higher = more cytotoxic; extreme values may be limits of the assay
ENDPOINT: drug sensitivity score
Hey, just send me the number, nothing else.

Example results:
**Query** What does the data say about its drug sensitivity score? Entry: CC[C@H](Nc1ncnc2[nH]cnc12)c1nc2cccc(F)c2c(=O)n1-c1ccccc1 [Idelalisib] (max concentration tested 10000 nM)
**Result** 0

**Query** What does the data say about its drug sensitivity score? Entry: Cn1cc(C[C@@H](N)C(=O)O)c2ccccc21 [1-methyl-D-tryptophan aq] (max concentration tested 5000 nM)
**Result** 0

**Query** What does the data say about its drug sensitivity score? Entry: CC(C)C[C@H](NC(=O)[C@H](Cc1ccccc1)NC(=O)c1cnccn1)B(O)O [Bortezomib] (max concentration tested 1000 nM)
**Result** 24.3

**Query** What does the data say about its drug sensitivity score? Entry: Cc1ccc(Nc2nccc(N(C)c3ccc4c(C)n(C)nc4c3)n2)cc1S(N)(=O)=O [Pazopanib] (max concentration tested 10000 nM)
**Result** 0

**Query** What does the data say about its drug sensitivity score? Entry: C[C@@H]1CCN(C(=O)CC#N)C[C@@H]1N(C)c1ncnc2[nH]ccc12 [Tofacitinib] (max concentration tested 5000 nM)
**Result** 0

Others:
**Query** What does the data say about its drug sensitivity score? Entry: Cc1cc(Nc2cc(CN3CCOCC3)c3nc(C)c(Cc4ccc(Cl)cc4F)n3n2)n[nH]1 [Gandotinib] (max concentration tested 10000 nM)
**Result** 5.3

**Query** What does the data say about its drug sensitivity score? Entry: CC[C@@]1(O)C(=O)OCc2c1cc1n(c2=O)Cc2cc3c(CN(C)C)c(O)ccc3nc2-1 [Topotecan] (max concentration tested 10000 nM)
**Result** 32.1

**Query** What does the data say about its drug sensitivity score? Entry: CN1CCC(COc2cnc(-c3cccc(Cn4nc(-c5cccc(C#N)c5)ccc4=O)c3)nc2)CC1 (max concentration tested 1000 nM)
**Result** 0

**Query** What does the data say about its drug sensitivity score? Entry: Cn1cnc2c(F)c(Nc3ccc(Br)cc3Cl)c(C(=O)NOCCO)cc21 [Selumetinib] (max concentration tested 10000 nM)
**Result** 1.43

**Query** What does the data say about its drug sensitivity score? Entry: CN(C)C[C@@H]1CCn2cc(c3ccccc32)C2=C(C(=O)NC2=O)c2cn(c3ccccc23)CCO1 [Ruboxistaurin] (max concentration tested 10000 nM)
**Result** 0.807

**Query** What does the data say about its drug sensitivity score? Entry: CO[C@H]1C[C@@H]2CC[C@@H](C)[C@@](O)(O2)C(=O)C(=O)N2CCCC[C@H]2C(=O)O[C@H]([C@H](C)C[C@@H]2CC[C@@H](OP(C)(C)=O)[C@H](OC)C2)CC(=O)[C@H](C)/C=C(\C)[C@@H](O)[C@@H](OC)C(=O)[C@H](C)C[C@H](C)/C=C/C=C/C=C/1C [Ridaforolimus] (max concentration tested 100 nM)
**Result** 0

**Query** What does the data say about its drug sensitivity score? Entry: CCc1c(C(=O)C(N)=O)c2c(OCC(=O)O)cccc2n1Cc1ccccc1 [Varespladib] (max concentration tested 10000 nM)
**Result** 0

**Query** What does the data say about its drug sensitivity score? Entry: Nc1ccccc1NC(=O)c1ccc(CNc2nccc(-c3cccnc3)n2)cc1 [Mocetinostat] (max concentration tested 10000 nM)
**Result** 5.01

**Query** What does the data say about its drug sensitivity score? Entry: CC(=O)Nc1ccc(C(=O)Nc2ccccc2N)cc1 [Tacedinaline] (max concentration tested 1000 nM)
**Result** 0

**Query** What does the data say about its drug sensitivity score? Entry: O=C(O)CCCc1ccc(N(CCCl)CCCl)cc1 [Chlorambucil] (max concentration tested 10000 nM)
**Result** 0

**Query** What does the data say about its drug sensitivity score? Entry: Oc1ncnc2[nH]ncc12 [Allopurinol] (max concentration tested 10000 nM)
**Result** 0

**Query** What does the data say about its drug sensitivity score? Entry: C=CCn1c(=O)c2cnc(Nc3ccc(N4CCN(C)CC4)cc3)nc2n1-c1cccc(C(C)(C)O)n1 [MK1775] (max concentration tested 10000 nM)
**Result** 14.6

**Query** What does the data say about its drug sensitivity score? Entry: CO[C@@]12[C@H](COC(N)=O)C3=C(C(=O)C(C)=C(N)C3=O)N1C[C@@H]1N[C@@H]12 [Mitomycin C] (max concentration tested 10000 nM)
**Result** 5.46
